The measured values listed here are drawn from the supplement of paper PMC10037445.

# Tested on: RAW-Dual
# ASSAY COMMENT: IRF Lucia reporter activity, fold change vs agonist alone; cytotoxicity flag (confluency mask): not cytotoxic; higher = enhanced IRF activity
# DETAILS: agonist: 3'3'-cGAMP (STING) 10 ug/mL
Whole data set: some 2,900 compounds, median “IRF Lucia reporter activity, fold change vs agonist alone” near 0.9, cut for the highest 2% near 2.8. Many of the other results were omitted from the sample, so the highest values are more common in it than they were.
Answer FALSE if IRF Lucia reporter activity is under 0.9, and TRUE if it is 0.9 or more.

Please review the following examples before continuing.
CCCc1cc(C)[nH]c(=O)c1CNC(=O)c1cc(-c2ccc(N3CCN(C)CC3)nc2)nc2c1cnn2C(C)C (library stock concentration (final ~1000-fold dilution): 10 mM) = FALSE
N#Cc1cccc(-c2c[nH]c3ncnc(N4CCOCC4)c23)c1 (library stock concentration (final ~1000-fold dilution): 10 mM) = FALSE
COC1CC2CCC(C)C(O)(O2)C(=O)C(=O)N2CCCCC2C(=O)OC(C(C)CC2CCC(OP(C)(C)=O)C(OC)C2)CC(=O)C(C)C=C(C)C(O)C(OC)C(=O)C(C)CC(C)C=CC=CC=C1C (stereo not drawn) (library stock concentration (final ~1000-fold dilution): 10 mM) = TRUE
COC1CC2CCC(C)C(O)(O2)C(=O)C(=O)N2CCCCC2C(=O)OC(C(C)CC2CCC(OC(=O)C(C)(CO)CO)C(OC)C2)CC(=O)C(C)C=C(C)C(O)C(OC)C(=O)C(C)CC(C)C=CC=CC=C1C (stereo not drawn) (library stock concentration (final ~1000-fold dilution): 10 mM) = FALSE
COC1CC2CCC(C)C(O)(O2)C(=O)C(=O)N2CCCCC2C(=O)OC(C(C)CC2CCC(O)C(OC)C2)CC(=O)C(C)C=C(C)C(O)C(OC)C(=O)C(C)CC(C)C=CC=CC=C1C (stereo not drawn) (library stock concentration (final ~1000-fold dilution): 10 mM) = TRUE
CC(C)=CCC[C@](C)(O[C@@H]1O[C@H](CO)[C@@H](O)C(O)[C@H]1O)[C@H]1CC[C@]2(C)[C@H]1[C@H](O)CC1[C@@]3(C)CC[C@H](O)C(C)(C)[C@@H]3[C@@H](O[C@@H]3O[C@H](CO)[C@@H](O)[C@H](O)[C@H]3O[C@@H]3O[C@@H](C)[C@H](O)[C@@H](O)[C@H]3O)C[C@]12C (stereo partly drawn) (library stock concentration (final ~1000-fold dilution): 10 mM) = TRUE

Now consider a different compound.
Qu. Could you please find out whether CC(C)(O)c1cc(Nc2cc(Oc3cn(C4CC4)nc3C3CCOCC3)ccn2)ccn1 (library stock concentration (final ~1000-fold dilution): 10 mM) has IRF Lucia reporter activity that meets 0.9 or exceeds it?
Ans. TRUE

* * *

Each entry below carries its recorded IRF Lucia reporter activity.
# Tested on: RAW-Dual
# ASSAY COMMENT: IRF Lucia reporter activity, fold change vs agonist alone; cytotoxicity flag (confluency mask): not cytotoxic; higher = enhanced IRF activity
# DETAILS: agonist: LPS (TLR4) 0.1 ug/mL
Whole data set: some 2,900 compounds, median “IRF Lucia reporter activity, fold change vs agonist alone” near 0.9, cut for the highest 2% near 2.8. Only a selection was taken, and the highest values are over-represented in it overall.
Kindly provide the number alone.

Some compounds with recorded IRF Lucia reporter activity:
CC(C)CC1NC(=O)C(C(C)C)NC(=O)C2CCCN2C(=O)C(CC(=O)O)NC(=O)C(Cc2c[nH]c3ccccc23)NC1=O (stereo unspecified) (library stock concentration (final ~1000-fold dilution): 10 mM) = 1.01
COC(=O)c1ccc(O)c(NC(=O)COc2ccc(C34CC5CC(CC(C5)C3)C4)cc2)c1 (library stock concentration (final ~1000-fold dilution): 10 mM) = 1.14
CCCCS(=O)(=O)NC(Cc1ccc(OCCCCC2CCNCC2)cc1)C(=O)O.Cl.O (stereo unspecified) (library stock concentration (final ~1000-fold dilution): 10 mM) = 1.35
CCC1(O)CC2CN(CCc3c([nH]c4ccccc34)C(C(=O)OC)(c3cc4c(cc3OC)N(C=O)C3C(O)(C(=O)OC)C(OC(C)=O)C5(CC)C=CCN6CCC43C65)C2)C1.O=S(=O)(O)O (stereo unspecified) (library stock concentration (final ~1000-fold dilution): 10 mM) = 2.02
CC(NC(=O)c1c(N)nn2cccnc12)c1cc2cccc(C#Cc3cnn(C)c3)c2c(=O)n1-c1ccccc1 (stereo unspecified) (library stock concentration (final ~1000-fold dilution): 10 mM) = 1.14

Qu. Look up IRF Lucia reporter activity for this compound: CC(Nc1ncnc2[nH]cnc12)c1cc2cccc(Cl)c2c(=O)n1-c1ccccc1 (stereo unspecified) (library stock concentration (final ~1000-fold dilution): 10 mM)
Ans. 0.799

Qu. And for CCc1c2c(nc3ccc(O)cc13)-c1cc3c(c(=O)n1C2)COC(=O)C3(O)CC (stereo unspecified) (library stock concentration (final ~1000-fold dilution): 10 mM) ?
Ans. 1.29

Qu. And for COC(=O)C1=C(C)NC(C)=C(C(=O)OC)C1c1ccccc1[N+](=O)[O-] (library stock concentration (final ~1000-fold dilution): 10 mM) ?
Ans. 0.554

Qu. And for CC1COCCN1c1cc(C2(S(C)(=N)=O)CC2)nc(-c2ccnc3[nH]ccc23)n1 (stereo unspecified) (library stock concentration (final ~1000-fold dilution): 10 mM) ?
Ans. 1.39

Qu. And for CN1C(=O)NC(Cc2c[nH]c3c(Cl)cccc23)C1=O (stereo unspecified) (library stock concentration (final ~1000-fold dilution): 10 mM) ?
Ans. 0.697

Qu. And for O=C(C=Cc1ccc(O)cc1)c1ccc(O)cc1O (library stock concentration (final ~1000-fold dilution): 10 mM) ?
Ans. 0.535

Qu. And for CC(C)(O)c1cc(Nc2cc(Oc3cn(C4CC4)nc3C3CCOCC3)ccn2)ccn1 (library stock concentration (final ~1000-fold dilution): 10 mM) ?
Ans. 1.53

Qu. And for CC1(c2cc(-c3cncnc3)c(F)cc2F)CCSC(N)=N1 (stereo unspecified) (library stock concentration (final ~1000-fold dilution): 10 mM) ?
Ans. 0.805

Qu. And for CCOC(=O)C1=C(C)NC(C)=C(C(=O)OC)C1c1cccc(Cl)c1Cl (stereo unspecified) (library stock concentration (final ~1000-fold dilution): 10 mM) ?
Ans. 1.17

Qu. And for Oc1cc(CNC(=S)/C=C/c2cc(O)c(O)c(Br)c2)cc(O)c1O (library stock concentration (final ~1000-fold dilution): 10 mM) ?
Ans. 4.35

Qu. And for CCC1(O)C(=O)OCc2c1cc1n(c2=O)Cc2cc3cc(O)ccc3nc2-1 (stereo unspecified) (library stock concentration (final ~1000-fold dilution): 10 mM) ?
Ans. 0.604

Qu. And for O=C(Nc1nc2cccc(-c3ccc(CN4CCS(=O)(=O)CC4)cc3)n2n1)C1CC1 (library stock concentration (final ~1000-fold dilution): 10 mM) ?
Ans. 3.4

Qu. And for COc1cc(F)c(C(C)C)cc1-c1ccc(C(F)(F)F)cc1CN1C(=O)OC(c2cc(C(F)(F)F)cc(C(F)(F)F)c2)C1C (stereo unspecified) (library stock concentration (final ~1000-fold dilution): 10 mM) ?
Ans. 1.14

Qu. And for C[C@@H]1O[C@@H](O[C@H]2C(=O)c3c(O)cc(O)cc3O[C@@H]2c2ccc(O)cc2)[C@H](O)[C@H](O)[C@H]1O (library stock concentration (final ~1000-fold dilution): 10 mM) ?
Ans. 1.17

Qu. And for CCc1c2c(nc3ccc(OC(=O)N4CCC(N5CCCCC5)CC4)cc13)-c1cc3c(c(=O)n1C2)COC(=O)C3(O)CC.Cl.O.O.O (stereo unspecified) (library stock concentration (final ~1000-fold dilution): 10 mM) ?
Ans. 1.1

Qu. And for c1ccc2c(CCNc3ccc(Nc4ccncc4)cc3)c[nH]c2c1 (library stock concentration (final ~1000-fold dilution): 10 mM) ?
Ans. 0.612
